# system.name: T1, human SIRPg protein at the surface of cells (human T lymphocyte Jurkat cell line; T cells in PBMC) (human, UniProt Q9P1W8 29-387)
# T1 construct: whole, on cells; also called SIRPg on Jurkat cells
# run.description: cytofluorometry (MFI) on human Jurkat cells, ED50

{"binder": "3H8 recombinant chimeric anti-SIRPg antibody (antibody, human IgG4 S228P, kappa, V domains shown, Mouse VH/VL on human IgG4 (S228P) and human CL kappa) VH: QIQLVQSGPELKKPGETVNISCMASGYSFTNYGMNWVKQAPGKGLKWMGWINTYTGEPTYADDFKGRFAFSLETSASTAYLQINNLKNEDMATYFCARQPYDYVPSFPYWGQGTLVTVSA VL: DIVMTQSHKFMSTSVGDRVNITCKASQDVSTAVAWYQLKPGQSPKLLIYWASIRHTGVPDRFTGSGSGTDYTLTISSVQAEHLALYYCQQHYSTPWTFGGGTKLEIKR", "EC50, µg/mL": 0.083}
{"binder": "2H9 recombinant chimeric anti-SIRPg antibody (antibody, human IgG4 S228P, kappa, V domains shown, Mouse VH/VL on human IgG4 (S228P)) VH: DVQLVESGGGLVQPGGSRKLSCAASGFTFSSFGMHWVRQAPEKGLEWVAYISSGSTTIYYADTVKGRFTISRDNPKNTLFLQMTSLRSEDTAMYFCARWTVVTNCFDYWGQGTTLTVSS VL: QIVLTQSPALMSASPGEKVTMTCSASSSISSMYWYQQKPRSSPKPWIYLTSNLASGVPARFSGSGSGTSYSLTISSMEAEDAATYYCQQWSSNLTFGAGTKLELKR", "EC50, µg/mL": 0.426}
{"binder": "13F7 recombinant chimeric anti-SIRPg antibody (antibody, human IgG4 S228P, kappa, V domains shown, Mouse VH/VL on human IgG4 (S228P) and human CL kappa) VH: QVQLQQSGAELVRPGVSVKVSCKGSGYTFTDYAMHWVKQSHPKSLEWIGVIGTYYGDAYYNQNFKGKATMTVDKSSSTAYMELARLTSEDSAIYYCARRAGTSDWFAYWGQGTLVTVSA VL: NIVLTQSPASLAVSLGQRATISCRASESVDSYGNSFMHWYQQKPGQPPKLLIYRASNLESGIPARFSGSGSRTDFTLTINPVEADDVATYYCQQSNEDPPTFGGGTKLEIKR", "EC50, µg/mL": 0.281}
{"binder": "26F10 recombinant chimeric anti-SIRPg antibody (antibody, human IgG4 S228P, kappa, V domains shown, Mouse VH/VL on human IgG4 (S228P) and human CL kappa) VH: EVQLQQSGTELVRSGASVKLSCTTSGFNIKDYYMHWVKQRPEQGLEWIGWIDPENGDTEYAPKFQGKATMTADTSSNTAYLQLSSLTSEDTAVYYCNAYDGYYGAMDYWGQGTSVTVSS VL: DVVMPQTPLSLPVSLGDQASISCRSSQSLVHSNGNTYLHWYLQKPGQSPKLLIYKVSNRFSGVPDRFSGSGSGTDFTLKISRVEAEDLGVYFCSQNTHVPLTFGAGTKLELKR", "EC50, µg/mL": 0.156}
{"binder": "11B5 recombinant chimeric anti-SIRPg antibody (antibody, human IgG4 S228P, kappa, V domains shown, Mouse VH/VL on human IgG4 (S228P) and human CL kappa) VH: EVQLVESGGDLVKPGGSLKLSCAASGFAFSDYYMYWVRQTPEKRLEWVATISDDGIYTYYPDSVKGRFTISRDNAKNNLFLQMSSLKSEDTAMYYCARGGYRDYYAMDYWGQGTSVTVSS VL: DIQMTQSPASLSASVGETVTITCRASENIYSYLAWYQQKQGKSPQLLVYNGITLAEGVPSRFSGSGSGTQFSLKINSLQPEDFGDYYCQHHYGSPRTFGGGTTLEIKR", "EC50, µg/mL": 0.195}
